- system: Melatonin receptor type 1A (Homo sapiens, UniProt P48039)
- Sequence (P48039 whole entry): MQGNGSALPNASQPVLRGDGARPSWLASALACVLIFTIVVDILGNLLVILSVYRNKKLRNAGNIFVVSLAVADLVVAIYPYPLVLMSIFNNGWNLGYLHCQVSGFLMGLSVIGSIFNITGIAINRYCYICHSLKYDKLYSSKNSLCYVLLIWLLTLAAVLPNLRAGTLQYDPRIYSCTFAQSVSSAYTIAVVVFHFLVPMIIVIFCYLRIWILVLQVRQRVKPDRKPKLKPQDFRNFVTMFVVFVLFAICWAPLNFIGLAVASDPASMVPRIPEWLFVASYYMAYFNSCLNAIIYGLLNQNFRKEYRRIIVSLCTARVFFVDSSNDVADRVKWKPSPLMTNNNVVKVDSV
- assayComment: Intrinsic activity at human cloned MT1 receptor expressed in […] NIH3T3 cells assessed as increase of [35S]GTPgammaS binding relative to melatonin
- Assay type: functional, cell-based
Entries whose Ratio is below 0.3 take Condition met; entries at or above 0.3 take Condition not met.

The following compounds have reported results that may help.
compound	className
CC(=O)NC(C)CSc1ccccc1 (stereo not drawn)	Condition met
CC(=O)NCCOc1ccccc1	Condition not met
CC(=O)NC(C)COc1ccccc1 (stereo not drawn)	Condition met
CCCC(=O)NC[C@@H](C)Sc1cccc(OC)c1	Condition not met
COc1ccccc1SCCNC(C)=O	Condition met
CC(=O)N[C@@H](C)CSc1ccccc1	Condition met

Please turn your attention to the following entry.
## Task State whether 0.3 exceeds Ratio recorded for COc1cccc(S[C@H](C)CNC(=O)C2CC2)c1 .
## Result Condition not met
